Exercise: state measured IC50 for each of the compounds provided.
system: L-type calcium channels; assay: Calcium channel influx assay (fluorescence, AtT20 cell line); format: cell-based, mouse; settings: AtT20 cells, 100 mM KCl depolarization; read-out: Ca++ influx IC50
Structures can show the parent of a compound that is named as a salt.
Answers are plain numbers, in µM.

Would you mind listing IC50 for each of the following compounds?
1. CCCCCOc1cccc(CCNCC(=O)N(CCC)CCC)c1 [hydrochloride]
2. CCCCSc1cccc(CCNCC(=O)N(C)C)c1 [hydrochloride]
3. CN(C)C(=O)CNCCc1cccc(OCCCC(F)(F)F)c1 [hydrochloride]
4. CCCCCOc1cccc(CCNCC(=O)N(C)C)c1.Cl [hydrochloride]

# output
1: 6.9; 2: 7.2; 3: 9.3; 4: 8.3

###

Measurement record for MAO-B (Rattus norvegicus (Rat)); quantity recorded: IC50.
One number for each entry, in µM.

In [3]: df
Out[3]:
                                   molecule  unit_abbrev  recorded_number
0  CCCCOc1cccc(CCNCC(=O)NC)c1.Cl [hydrochloride]           µM              110
1  CCCCOc1cccc(CCNCC(=O)N(C)C)c1.Cl [hydrochloride]           µM              231
2  C[C@H](NCc1ccc(OCc2cccc(F)c2)cc1)C(N)=O [safinamide]           µM              0.1

# input Using the record for C[C@H](NCc1ccc(OCc2ccccc2F)cc1)C(N)=O [ralfinamide, reference compound] , report its IC50.
# output 0.2

###

target: Na+ currents in rat cortical neurons; test: Patch clamp evaluation of Na+ currents blockade in rat cortical neurons; conditions: calculated from Kr and Kdep, read-out: Ki (apparent affinity for the inactivated state)
Please go through the items and note down their pKi.
Give bare numbers, as −log10 of the molar value.

                                   compound  recorded_number
0  C[C@H](NCc1ccc(OCc2ccccc2F)cc1)C(N)=O [ralfinamide, reference compound]             5.33
1  C[C@H](NCc1ccc(OCc2cccc(F)c2)cc1)C(N)=O [safinamide]             5.44

Field: next compound
# input # lookup: pKi of CCCCOc1cccc(CCNCC(=O)N(C)C)c1.Cl [hydrochloride]
# output 6.40

###

tested on: Na+ currents in rat cortical neurons; test: Patch clamp evaluation of Na+ currents blockade in rat cortical neurons; type: cell-based; conditions: preconditioning potential -110 mV, read-out: IC50 resting (Kr)
pIC50: −log10 of the molar value.
Provide the reported pIC50 of each item.

>>> print(df.to_string())
                                   molecule  result
0  C[C@H](NCc1ccc(OCc2ccccc2F)cc1)C(N)=O [ralfinamide, reference compound]  < 4.00
1  C[C@H](NCc1ccc(OCc2cccc(F)c2)cc1)C(N)=O [safinamide]  < 4.00

# next molecule below
# input Reported pIC50 for CCCCOc1cccc(CCNCC(=O)N(C)C)c1.Cl [hydrochloride] : what is it?
# output 4.60

###

system: Na+ currents in rat cortical neurons; experiment: Patch clamp evaluation of Na+ currents blockade in rat cortical neurons; type: cell-based; conditions: resting condition, figure in parentheses after >100, read-out: IC50 resting (Kr), value in parentheses
Metric name: pIC50
One number for each entry, as −log10 of the molar value.

                                   compound                                target  recorded_number
0  C[C@H](NCc1ccc(OCc2cccc(F)c2)cc1)C(N)=O [safinamide]  Na+ currents in rat cortical neurons             3.74

Proceeding to the next compound to report its pIC50.
# input Fill in the recorded pIC50 for this compound, with Na+ currents in rat cortical neurons as test system: C[C@H](NCc1ccc(OCc2ccccc2F)cc1)C(N)=O [ralfinamide, reference compound]
# output 3.67

###

tested on: L-type calcium channels; experiment: Calcium channel influx assay (fluorescence, AtT20 cell line); type: cell-based, mouse; settings: AtT20 cells, 100 mM KCl depolarization; read-out: Ca++ influx IC50
Structures can show the parent of a compound that is named as a salt.
Metric name: pIC50
Numbers only, as −log10 of the molar value.

Would you mind listing pIC50 for each of the following molecules?
1. CCCCCCOc1cccc(CCNCC(=O)N(C)C)c1.Cl [hydrochloride]
2. CCCCOc1cccc(CCNCC(=O)N(CCC)CCC)c1 [hydrochloride]
3. C[C@H](NCc1ccc(OCc2ccccc2F)cc1)C(N)=O [ralfinamide, reference compound]
4. C[C@H](NCc1ccc(OCc2cccc(F)c2)cc1)C(N)=O [safinamide]
5. CCCCOc1cccc(CCNCC(=O)N(CCCC)CCCC)c1 [hydrochloride]
6. CCCCOc1cc(CCNCC(=O)N(C)C)ccc1C.Cl [hydrochloride]
7. CCCCOc1cccc(CCNCC(=O)N(CC)CC)c1 [hydrochloride]
8. CCCCOc1cccc(CCNCC(=S)N(C)C)c1 [hydrochloride]

# output
1: 5.40; 2: 5.96; 3: 4.59; 4: 4.48; 5: 5.74; 6: 5.00; 7: 5.17; 8: 5.12

###

pIC50: −log10 of the molar value. Where a name gives a salt, the structure may show the parent alone.
Form: system (MAO-B (Rattus norvegicus (Rat), UniProt P19643)), quantity (pIC50), values below.

Examples from the recorded data:
>>> df
                                   compound  metric_name  result
0  CCCCOc1cc(CCNCC(=O)N(C)C)ccc1OC [hydrochloride]        pIC50  < 3.52
1  CCCCOc1ccc(F)c(CCNCC(=O)N(C)C)c1F.Cl [hydrochloride]        pIC50  < 3.52

In the following, a different compound is considered.
# input I am curious: what pIC50 value has been reported for CCCCOc1cccc(CCNC(C)C(=O)N(C)C)c1.Cl (stereo not drawn) [hydrochloride] ?
# output < 3.52
